All values here come from PubChem BioAssay AID248.

System: L1210 leukemia ip in BDF1 mice, survival T/C
Assay: NCI In Vivo Anticancer Drug Screen. Data for tumor model L1210 Leukemia (intraperitoneal) in B6D2F1 (BDF1) mice
Details: endpoint: mean survival time; dose: 12.5 mg/kg/injection; schedule: Q01DX009 (ip); vehicle: Klucel (hydroxypropylcellulose) (HPC); higher = longer survival
Protocol: The antitumor activity of compounds was measured in mice bearing transplantable tumors. Survival or tumor size were measured and the results are expressed as the measurement made in the treated group (T) divided by the measurement made in the vehicle treated control group (C). The tumor model used in this assay is L1210 Leukemia (intraperitoneal) in B6D2F1 (BDF1) mice
Toxic doses and inconclusive results are not listed.

compound: CCOC(=O)C1c2cc3c(cc2C(c2cc(OC)c(OC)c(OC)c2)C2C(=O)OCC12)OCO3 (stereo unspecified)
T/C: 88 % of control
//
compound: CC1=NC(C#N)=C(C#N)N=C(C)C1
T/C: 98 % of control
//
compound: CC(Cc1ccccc1)NC(=O)CCNNC(=O)c1ccncc1 (stereo unspecified)
T/C: 96 % of control
//
compound: CCOc1ccc(NC(=O)Nc2cccc(F)c2)cc1
T/C: 88 % of control
//
compound: Cc1cc(C)c(F)[c]([Hg][Br])c1N
T/C: 96 % of control
//
compound: OCc1cccc2c1CCC2
T/C: 104 % of control
